tested_system: Ubiquitin Specific Protease 7 (USP-7) (Homo sapiens)
Construct: recombinant USP-7 (BPS Bioscience kit #79256)
Sequence (Q93009 whole entry): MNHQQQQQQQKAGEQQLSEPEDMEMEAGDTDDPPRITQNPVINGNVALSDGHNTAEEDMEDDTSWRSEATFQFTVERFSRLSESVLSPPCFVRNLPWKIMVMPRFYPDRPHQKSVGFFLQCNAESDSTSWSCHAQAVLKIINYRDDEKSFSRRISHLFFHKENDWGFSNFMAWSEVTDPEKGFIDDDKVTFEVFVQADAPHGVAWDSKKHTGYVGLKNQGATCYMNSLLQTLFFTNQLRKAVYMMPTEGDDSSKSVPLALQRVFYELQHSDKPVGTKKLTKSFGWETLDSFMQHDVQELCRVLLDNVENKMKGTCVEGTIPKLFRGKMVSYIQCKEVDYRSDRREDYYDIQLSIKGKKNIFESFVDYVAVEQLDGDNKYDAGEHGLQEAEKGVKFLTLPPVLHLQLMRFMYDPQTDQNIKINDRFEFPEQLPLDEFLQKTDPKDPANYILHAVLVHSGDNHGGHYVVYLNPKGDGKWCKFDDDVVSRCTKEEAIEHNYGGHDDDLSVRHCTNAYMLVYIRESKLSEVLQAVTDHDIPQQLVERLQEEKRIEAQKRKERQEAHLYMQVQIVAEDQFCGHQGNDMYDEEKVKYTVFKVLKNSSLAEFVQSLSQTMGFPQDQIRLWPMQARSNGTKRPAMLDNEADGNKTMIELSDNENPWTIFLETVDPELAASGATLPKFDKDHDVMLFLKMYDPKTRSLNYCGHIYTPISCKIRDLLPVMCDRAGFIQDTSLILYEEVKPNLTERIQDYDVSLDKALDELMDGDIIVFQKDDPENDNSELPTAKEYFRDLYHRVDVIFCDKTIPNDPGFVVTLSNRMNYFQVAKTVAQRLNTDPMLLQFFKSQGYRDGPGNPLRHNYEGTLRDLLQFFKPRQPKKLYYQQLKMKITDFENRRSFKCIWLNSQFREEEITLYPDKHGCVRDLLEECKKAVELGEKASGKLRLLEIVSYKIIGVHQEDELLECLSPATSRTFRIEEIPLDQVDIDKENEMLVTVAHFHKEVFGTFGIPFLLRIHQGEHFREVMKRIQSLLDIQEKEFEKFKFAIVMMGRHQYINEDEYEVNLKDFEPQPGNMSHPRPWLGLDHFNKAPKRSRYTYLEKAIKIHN
method_notes: Ub-AMC fluorescence enzyme assay; supported by DARTS immunoblotting and t-LiP-MRM in HTLA-230 lysate
experimental_endpoint: pIC50
Here pIC50 is given on a logarithmic scale as minus log10 of the concentration in mol/L.

query: Need pIC50, item CCOC(=O)c1cnn(CC(C)O)c1NC(=O)Nc1cccc(F)c1 (racemic)
result: 5.56
